Reference source: the supplement of paper PMC11424490

- Test system: NCI-H2122
- method_description: combination cScore with adagrasib (Bliss gap around IC50) (%PoC); higher = stronger additive effect
readout: combination cScore with adagrasib
Please state the value as a number alone, without comment.

Worked examples follow.
compound	readout	reported_measurement
Cc1cn(-c2cc(NC(=O)c3ccc(C)c(Nc4nccc(-c5cccnc5)n4)c3)cc(C(F)(F)F)c2)cn1 [Nilotinib] + C=C(F)C(=O)N1CCN(c2nc(OC[C@@H]3CCCN3C)nc3c2CCN(c2cccc4cccc(Cl)c24)C3)C[C@@H]1CC#N	combination cScore with adagrasib	10.6
O=C(/C=C/c1cccc(S(=O)(=O)Nc2ccccc2)c1)NO [Belinostat] + C=C(F)C(=O)N1CCN(c2nc(OC[C@@H]3CCCN3C)nc3c2CCN(c2cccc4cccc(Cl)c24)C3)C[C@@H]1CC#N	combination cScore with adagrasib	7.12
CC(=O)O[C@@]12CO[C@@H]1C[C@H](O)[C@@]1(C)C(=O)[C@H](O)C3=C(C)[C@@H](OC(=O)[C@H](O)[C@@H](NC(=O)OC(C)(C)C)c4ccccc4)C[C@@](O)([C@@H](OC(=O)c4ccccc4)[C@H]21)C3(C)C [Docetaxel] + C=C(F)C(=O)N1CCN(c2nc(OC[C@@H]3CCCN3C)nc3c2CCN(c2cccc4cccc(Cl)c24)C3)C[C@@H]1CC#N	combination cScore with adagrasib	3.05
Nc1nc2[nH]cc(CCc3ccc(C(=O)N[C@@H](CCC(=O)O)C(=O)O)cc3)c2c(=O)[nH]1 [Pemetrexed] + C=C(F)C(=O)N1CCN(c2nc(OC[C@@H]3CCCN3C)nc3c2CCN(c2cccc4cccc(Cl)c24)C3)C[C@@H]1CC#N	combination cScore with adagrasib	2.77
C[C@H](NC(=O)c1c(N)nn2cccnc12)c1cc2cccc(C#Cc3cnn(C)c3)c2c(=O)n1-c1ccccc1 [IPI-549] + C=C(F)C(=O)N1CCN(c2nc(OC[C@@H]3CCCN3C)nc3c2CCN(c2cccc4cccc(Cl)c24)C3)C[C@@H]1CC#N	combination cScore with adagrasib	13

Looking up Cc1ccc(NC(=O)c2ccc(CN3CCN(C)CC3)cc2)cc1Nc1nccc(-c2cccnc2)n1 [Imatinib] + C=C(F)C(=O)N1CCN(c2nc(OC[C@@H]3CCCN3C)nc3c2CCN(c2cccc4cccc(Cl)c24)C3)C[C@@H]1CC#N , I see its combination cScore with adagrasib listed as -0.92

* * *

- Test system: NCI-H2122
- method_description: combination cScore with sotorasib (Bliss gap around IC50) (%PoC); higher = stronger additive effect
Listed next: entries and their corresponding combination cScore with sotorasib.
Please state the value as a number alone, without comment.

Worked examples follow.
compound	system_name	reported_measurement
CN1CCN(c2ccc(-c3cccc(CN4CCOCC4)c3)cc2NC(=O)c2c[nH]c(=O)cc2C(F)(F)F)CC1 [OICR-9429] + C=CC(=O)N1CCN(c2nc(=O)n(-c3c(C)ccnc3C(C)C)c3nc(-c4c(O)cccc4F)c(F)cc23)[C@@H](C)C1	NCI-H2122	9.62
Nc1nc2[nH]cc(CCc3ccc(C(=O)N[C@@H](CCC(=O)O)C(=O)O)cc3)c2c(=O)[nH]1 [Pemetrexed] + C=CC(=O)N1CCN(c2nc(=O)n(-c3c(C)ccnc3C(C)C)c3nc(-c4c(O)cccc4F)c(F)cc23)[C@@H](C)C1	NCI-H2122	1.36

Looking up CC1=C(/C=C/C(C)=C/C=C/C(C)=C/C(=O)O)C(C)(C)CCC1 [Tretinoin] + C=CC(=O)N1CCN(c2nc(=O)n(-c3c(C)ccnc3C(C)C)c3nc(-c4c(O)cccc4F)c(F)cc23)[C@@H](C)C1 , I see its combination cScore with sotorasib listed as 10.5

Looking up COc1cc(OC)c(/C=C/S(=O)(=O)Cc2ccc(OC)c(NCC(=O)O)c2)c(OC)c1 [Rigosertib] + C=CC(=O)N1CCN(c2nc(=O)n(-c3c(C)ccnc3C(C)C)c3nc(-c4c(O)cccc4F)c(F)cc23)[C@@H](C)C1 , I see its combination cScore with sotorasib listed as 2.41

Looking up CN[C@H]1CN(c2ccc3c(=O)c(C(=O)O)cn(-c4nccs4)c3n2)C[C@@H]1OC [Vosaroxin] + C=CC(=O)N1CCN(c2nc(=O)n(-c3c(C)ccnc3C(C)C)c3nc(-c4c(O)cccc4F)c(F)cc23)[C@@H](C)C1 , I see its combination cScore with sotorasib listed as 13.3

Looking up COC(=O)c1ccc2c(c1)NC(=O)/C2=C(\Nc1ccc(N(C)C(=O)CN2CCN(C)CC2)cc1)c1ccccc1 [Nintedanib] + C=CC(=O)N1CCN(c2nc(=O)n(-c3c(C)ccnc3C(C)C)c3nc(-c4c(O)cccc4F)c(F)cc23)[C@@H](C)C1 , I see its combination cScore with sotorasib listed as 11.8

Looking up NC(=O)Nc1cc(-c2cccc(F)c2)sc1C(=O)N[C@H]1CCCNC1 [AZD-7762] + C=CC(=O)N1CCN(c2nc(=O)n(-c3c(C)ccnc3C(C)C)c3nc(-c4c(O)cccc4F)c(F)cc23)[C@@H](C)C1 , I see its combination cScore with sotorasib listed as 2.45

Looking up COc1cc2ncnc(Nc3ccc(F)c(Cl)c3)c2cc1OCCCN1CCOCC1 [Gefitinib] + C=CC(=O)N1CCN(c2nc(=O)n(-c3c(C)ccnc3C(C)C)c3nc(-c4c(O)cccc4F)c(F)cc23)[C@@H](C)C1 , I see its combination cScore with sotorasib listed as 26.4

* * *

- Tested on: SW837
- method_description: combination cScore with adagrasib (Bliss gap around IC50) (%PoC); higher = stronger additive effect
readout: combination cScore with adagrasib

Worked examples follow.
molecule	reported_measurement
CN[C@@H](C)C(=O)N[C@H](C(=O)N1CCC[C@H]1c1nc(C(=O)c2ccc(F)cc2)cs1)C1CCCCC1 [LCL161] + C=C(F)C(=O)N1CCN(c2nc(OC[C@@H]3CCCN3C)nc3c2CCN(c2cccc4cccc(Cl)c24)C3)C[C@@H]1CC#N	1.58
COc1ccccc1-c1cc(Nc2cccc(CS(N)(=O)=O)c2)ncn1 [LDC-067] + C=C(F)C(=O)N1CCN(c2nc(OC[C@@H]3CCCN3C)nc3c2CCN(c2cccc4cccc(Cl)c24)C3)C[C@@H]1CC#N	3.49
CN1CCN(c2ccc(-c3cccc(CN4CCOCC4)c3)cc2NC(=O)c2c[nH]c(=O)cc2C(F)(F)F)CC1 [OICR-9429] + C=C(F)C(=O)N1CCN(c2nc(OC[C@@H]3CCCN3C)nc3c2CCN(c2cccc4cccc(Cl)c24)C3)C[C@@H]1CC#N	8.92

Looking up CNC(=O)c1ccc(N2C(=S)N(c3ccc(C#N)c(C(F)(F)F)c3)C(=O)C2(C)C)cc1F [Enzalutamide] + C=C(F)C(=O)N1CCN(c2nc(OC[C@@H]3CCCN3C)nc3c2CCN(c2cccc4cccc(Cl)c24)C3)C[C@@H]1CC#N , I see its combination cScore with adagrasib listed as 7.72

* * *

Listed next: entries and their corresponding relative IC50 of cell viability.
- System: NCI-H2122
- method_description: relative IC50 of cell viability (CellTiter-Glo); higher = less potent
Express it in nM; write the number only.

molecule	system_name	relative IC50 of cell viability [nM]
C[C@@H]1CN(CC(=O)Nc2ccc3c(c2)Cc2cccc(-c4cc(=O)cc(N5CCOCC5)o4)c2S3)C[C@H](C)O1 (top concentration tested 50000 nM)	NCI-H2122	11800
CC1(C)CCC(CN2CCN(c3ccc(C(=O)NS(=O)(=O)c4ccc(NCC5CCOCC5)c([N+](=O)[O-])c4)c(Oc4cnc5[nH]ccc5c4)c3)CC2)=C(c2ccc(Cl)cc2)C1 [ABT-199] (top concentration tested 10000 nM)	NCI-H2122	8090
C[C@H](Nc1ccc2c(c1)OCCn1cc(N3C(=O)OC[C@H]3C(F)F)nc1-2)C(N)=O [GDC-0077] (top concentration tested 10000 nM)	NCI-H2122	867
Nc1ccn([C@@H]2O[C@H](CO)[C@@H](O)[C@@H]2O)c(=O)n1 [Cytarabin] (top concentration tested 999.93 nM)	NCI-H2122	238

Looking up CCc1cnn2c(NCc3ccc[n+]([O-])c3)cc(N3CCCC[C@H]3CCO)nc12 (top concentration tested 1000 nM) , I see its relative IC50 of cell viability listed as 8.91

Looking up CC(C)C[C@@H](C(=O)N[C@H](C(=O)OC1CCCC1)c1ccccc1)[C@H](O)C(=O)NO [Tosedostat] (top concentration tested 9999.9 nM) , I see its relative IC50 of cell viability listed as 776

* * *

- Test system: NCI-H2122
- method_description: combination cScore with adagrasib (Bliss gap around IC50) (%PoC); higher = stronger additive effect
readout: combination cScore with adagrasib

compound	readout	reported_measurement
O=C1c2c(O)ccc(O)c2C(=O)c2c(NCCNCCO)ccc(NCCNCCO)c21 [Mitoxantrone] + C=C(F)C(=O)N1CCN(c2nc(OC[C@@H]3CCCN3C)nc3c2CCN(c2cccc4cccc(Cl)c24)C3)C[C@@H]1CC#N	combination cScore with adagrasib	12.9

So the reported combination cScore with adagrasib for CO[C@H]1/C=C/C[C@H](C)[C@@H](C)S(=O)(=O)NC(=O)c2ccc3c(c2)N(C[C@@H]2CC[C@H]21)C[C@@]1(CCCc2cc(Cl)ccc21)CO3 [AMG176] + C=C(F)C(=O)N1CCN(c2nc(OC[C@@H]3CCCN3C)nc3c2CCN(c2cccc4cccc(Cl)c24)C3)C[C@@H]1CC#N , on NCI-H2122, turned out to be 5.81
